Listed next: entries and their corresponding pKi.
Target: human histamine H3 receptor (Homo sapiens)
Construct: purchased Euroscreen (Brussels, Belgium); host or cells: CHO cells (membrane preparations)
Sequence (Q9Y5N1 whole entry): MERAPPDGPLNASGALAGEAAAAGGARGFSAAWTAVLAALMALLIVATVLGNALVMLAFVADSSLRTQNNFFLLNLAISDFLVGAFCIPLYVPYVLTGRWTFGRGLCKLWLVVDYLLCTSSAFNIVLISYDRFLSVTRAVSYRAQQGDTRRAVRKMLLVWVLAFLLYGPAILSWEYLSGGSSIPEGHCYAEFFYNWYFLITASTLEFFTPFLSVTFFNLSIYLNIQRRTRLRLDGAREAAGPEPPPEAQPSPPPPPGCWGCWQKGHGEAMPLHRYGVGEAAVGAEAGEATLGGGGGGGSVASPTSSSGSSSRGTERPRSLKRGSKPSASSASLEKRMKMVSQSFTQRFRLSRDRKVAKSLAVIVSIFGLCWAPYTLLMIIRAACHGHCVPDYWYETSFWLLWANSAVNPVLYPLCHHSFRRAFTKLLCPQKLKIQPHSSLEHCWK
Assay: Radioligand binding assay with [3H]Nα-methylhistamine on CHO cell membranes expressing recombinant human H3 receptor
Details: human H3R, CHO cell membranes, [3H]Nα-methylhistamine; mean ± SEM (n = 3–5)
pKi: −log10 of the molar value.

{"molecule": "Cl.Cl.Clc1ccc(CNC[C@H]2CC[C@]3(c4c[nH]cn4)C[C@H]23)cc1", "pKi": 7.50}
{"molecule": "Clc1ccc(CNC[C@H]2CC[C@@]3(c4c[nH]cn4)C[C@@H]23)cc1 (single isomer, unassigned)", "pKi": 7.83}
{"molecule": "Clc1ccc(CNC[C@@H]2CC[C@]3(c4c[nH]cn4)C[C@H]23)cc1", "pKi": 8.25}
{"molecule": "Clc1ccc(CNC[C@@H]2CC[C@@]3(c4c[nH]cn4)C[C@@H]23)cc1 (single isomer, unassigned)", "pKi": 7.66}

====

Target: human histamine H3 receptor (Homo sapiens)
Construct: purchased Euroscreen (Brussels, Belgium); host or cells: CHO cells (membrane preparations)
Assay: Radioligand binding assay with [3H]Nα-methylhistamine on CHO cell membranes expressing recombinant human H3 receptor
Conditions: ratio of Ki H4 / Ki H3, human receptors

{"compound": "Clc1ccc(CNC[C@H]2CC[C@@]3(c4c[nH]cn4)C[C@@H]23)cc1 (single isomer, unassigned)", "Selectivity Ratio (H4/H3)": 4.7}
{"compound": "CC[C@H](CNCc1ccc(Cl)cc1)[C@H]1C[C@@H]1c1c[nH]cn1", "Selectivity Ratio (H4/H3)": 1.2}
{"compound": "CC[C@@H](CNCc1ccc(Cl)cc1)[C@H]1C[C@@H]1c1c[nH]cn1", "Selectivity Ratio (H4/H3)": 1.3}
{"compound": "Cl.Cl.Clc1ccc(CNC[C@H]2CC[C@]3(c4c[nH]cn4)C[C@H]23)cc1", "Selectivity Ratio (H4/H3)": 16}
{"compound": "Clc1ccc(CNC[C@@H]2CC[C@@]3(c4c[nH]cn4)C[C@@H]23)cc1 (single isomer, unassigned)", "Selectivity Ratio (H4/H3)": 19}
